- Test system: LOX IMVI
- assay-protocol: Growth inhibition of human LOXIMVI cells by sulforhodamine B assay
- Assay type: functional
- details: read-out: LC50 (the source's name)
Parameter: CC50. Scope: all listed entries.
// note: answer is a bare numeric in µM

smiles: C/C=C(/C)C(=O)O[C@@H]1CC(C)(C)C[C@H]2C3=CC[C@@H]4[C@@]5(C)CC[C@H](O)C(C)(C)[C@@H]5CC[C@@]4(C)[C@]3(C)CC[C@@]12C(=O)O
target-entity: LOX IMVI
observed-value: 66.8

Next up:
For "CC1(C)C[C@@H](O)[C@]2(C(=O)O)CC[C@]3(C)C(=CC[C@@H]4[C@@]5(C)C/C(=C\C=C\c6ccccc6)C(=O)C(C)(C)[C@@H]5CC[C@]43C)[C@@H]2C1" the compound record lists CC50 as 6.68

====

Parameter: TGI. Scope: all listed entries.
- System: MCF7
- assay-protocol: Growth inhibition of human MCF7 cells by sulforhodamine B assay
- Type: functional
- details: read-out: pTGI (converted)

smiles: CC(C)=CC(=O)O[C@@H]1CC(C)(C)C[C@H]2C3=CC[C@@H]4[C@@]5(C)CC[C@H](O)C(C)(C)[C@@H]5CC[C@@]4(C)[C@]3(C)CC[C@@]12C(=O)O
target-entity: MCF7
TGI: 30.2 µM

For "C/C=C(/C)C(=O)O[C@@H]1CC(C)(C)C[C@H]2C3=CC[C@@H]4[C@@]5(C)CC[C@H](O)C(C)(C)[C@@H]5CC[C@@]4(C)[C@]3(C)CC[C@@]12C(=O)O" the molecule record lists TGI as 16.6 µM

For "CC(C)=CC(=O)O[C@@H]1CC(C)(C)C[C@H]2C3=CC[C@@H]4[C@@]5(C)CCC(=O)C(C)(C)[C@@H]5CC[C@@]4(C)[C@]3(C)CC[C@@]12C(=O)O" the molecule record lists TGI as > 100 µM

For "C/C=C(/C)C(=O)O[C@@H]1CC(C)(C)C[C@H]2C3=CC[C@@H]4[C@@]5(C)CCC(=O)C(C)(C)[C@@H]5CC[C@@]4(C)[C@]3(C)CC[C@@]12C(=O)O" the molecule record lists TGI as > 100 µM

For "CC1(C)C[C@@H](O)[C@]2(C(=O)O)CC[C@]3(C)C(=CC[C@@H]4[C@@]5(C)C/C(=C\C=C\c6ccccc6)C(=O)C(C)(C)[C@@H]5CC[C@]43C)[C@@H]2C1" the molecule record lists TGI as 12.3 µM

====

Parameter: growth at 10 µM. Scope: all listed entries.
- System: NCI-H226
- assay-protocol: Growth inhibition of human NCI-H226 cells assessed as cell growth at 10 uM by sulforhodamine B assay
- Format: functional
- details: read-out: Activity
// note: answer is a bare numeric in %

Observe how each entry below is paired with its result.
smiles: C/C=C(/C)C(=O)O[C@@H]1CC(C)(C)C[C@H]2C3=CC[C@@H]4[C@@]5(C)CC[C@H](O)C(C)(C)[C@@H]5CC[C@@]4(C)[C@]3(C)CC[C@@]12C(=O)O
target-entity: NCI-H226
observed-value: 42.1
//
smiles: CC1(C)C[C@@H](O)[C@]2(C(=O)O)CC[C@]3(C)C(=CC[C@@H]4[C@@]5(C)CCC(=O)C(C)(C)[C@@H]5CC[C@]43C)[C@@H]2C1
target-entity: NCI-H226
observed-value: 103

For "CC1(C)C[C@@H](O)[C@]2(C(=O)O)CC[C@]3(C)C(=CC[C@@H]4[C@@]5(C)CC[C@H](O)C(C)(C)[C@@H]5CC[C@]43C)[C@@H]2C1" the molecule record lists growth at 10 µM as 107

For "CC(C)=CC(=O)O[C@@H]1CC(C)(C)C[C@H]2C3=CC[C@@H]4[C@@]5(C)CCC(=O)C(C)(C)[C@@H]5CC[C@@]4(C)[C@]3(C)CC[C@@]12C(=O)O" the molecule record lists growth at 10 µM as 78.2

For "C/C=C(/C)C(=O)O[C@@H]1CC(C)(C)C[C@H]2C3=CC[C@@H]4[C@@]5(C)CCC(=O)C(C)(C)[C@@H]5CC[C@@]4(C)[C@]3(C)CC[C@@]12C(=O)O" the molecule record lists growth at 10 µM as 82

For "CC1(C)C[C@@H](O)[C@]2(C(=O)O)CC[C@]3(C)C(=CC[C@@H]4[C@@]5(C)C/C(=C\C=C\c6ccccc6)C(=O)C(C)(C)[C@@H]5CC[C@]43C)[C@@H]2C1" the molecule record lists growth at 10 µM as 72.3

For "CC(C)=CC(=O)O[C@@H]1CC(C)(C)C[C@H]2C3=CC[C@@H]4[C@@]5(C)CC[C@H](O)C(C)(C)[C@@H]5CC[C@@]4(C)[C@]3(C)CC[C@@]12C(=O)O" the molecule record lists growth at 10 µM as 78.7

For "COc1cc(/C=C2\C[C@]3(C)[C@H]4CC=C5[C@@H]6CC(C)(C)C[C@@H](O)[C@]6(C(=O)O)CC[C@@]5(C)[C@]4(C)CC[C@H]3C(C)(C)C2=O)ccc1O" the molecule record lists growth at 10 µM as 100

====

Parameter: inhibition of growth at 10 µM. Scope: all listed entries.
- System: NCI-H522
- assay-protocol: Growth inhibition of human NCI-H522 cells assessed as growth inhibition at 10 uM by sulforhodamine B assay
- Assay type: functional
- details: read-out: GI
// note: answer is a bare numeric in %

# "CC1(C)C[C@@H](O)[C@]2(C(=O)O)CC[C@]3(C)C(=CC[C@@H]4[C@@]5(C)C/C(=C\C=C\c6ccccc6)C(=O)C(C)(C)[C@@H]5CC[C@]43C)[C@@H]2C1" with NCI-H522: inhibition of growth at 10 µM is 52.3

# "C/C=C(/C)C(=O)O[C@@H]1CC(C)(C)C[C@H]2C3=CC[C@@H]4[C@@]5(C)CC[C@H](O)C(C)(C)[C@@H]5CC[C@@]4(C)[C@]3(C)CC[C@@]12C(=O)O" with NCI-H522: inhibition of growth at 10 µM is 50.3

# "COc1cc(/C=C2\C[C@]3(C)[C@H]4CC=C5[C@@H]6CC(C)(C)C[C@@H](O)[C@]6(C(=O)O)CC[C@@]5(C)[C@]4(C)CC[C@H]3C(C)(C)C2=O)ccc1O" with NCI-H522: inhibition of growth at 10 µM is 19.2

# "CC(C)=CC(=O)O[C@@H]1CC(C)(C)C[C@H]2C3=CC[C@@H]4[C@@]5(C)CC[C@H](O)C(C)(C)[C@@H]5CC[C@@]4(C)[C@]3(C)CC[C@@]12C(=O)O" with NCI-H522: inhibition of growth at 10 µM is 32.4

====

Parameter: growth at 10 µM. Scope: all listed entries.
- Tested on: A498
- assay-protocol: Growth inhibition of human A498 cells assessed as cell growth at 10 uM by sulforhodamine B assay
- Assay type: functional
- details: read-out: Activity
// note: answer is a bare numeric in %

Observe how each entry below is paired with its result.
smiles: CC(C)=CC(=O)O[C@@H]1CC(C)(C)C[C@H]2C3=CC[C@@H]4[C@@]5(C)CCC(=O)C(C)(C)[C@@H]5CC[C@@]4(C)[C@]3(C)CC[C@@]12C(=O)O
reported-metric: growth at 10 µM
observed-value: 101

smiles: COc1cc(/C=C2\C[C@]3(C)[C@H]4CC=C5[C@@H]6CC(C)(C)C[C@@H](O)[C@]6(C(=O)O)CC[C@@]5(C)[C@]4(C)CC[C@H]3C(C)(C)C2=O)ccc1O
reported-metric: growth at 10 µM
observed-value: 115

# "CC1(C)C[C@@H](O)[C@]2(C(=O)O)CC[C@]3(C)C(=CC[C@@H]4[C@@]5(C)C/C(=C\C=C\c6ccccc6)C(=O)C(C)(C)[C@@H]5CC[C@]43C)[C@@H]2C1" with A498: growth at 10 µM is 95.7

====

- Test system: NCI-H522
- assay-protocol: Growth inhibition of human NCI-H522 cells by sulforhodamine B assay
- Type: functional
- details: read-out: pTGI (converted)
reported-metric: TGI (µM)
// note: answer is a bare numeric in µM

Observe how each entry below is paired with its result.
smiles: CC(C)=CC(=O)O[C@@H]1CC(C)(C)C[C@H]2C3=CC[C@@H]4[C@@]5(C)CC[C@H](O)C(C)(C)[C@@H]5CC[C@@]4(C)[C@]3(C)CC[C@@]12C(=O)O
TGI [µM]: 21.9
--
smiles: CC1(C)C[C@@H](O)[C@]2(C(=O)O)CC[C@]3(C)C(=CC[C@@H]4[C@@]5(C)C/C(=C\C=C\c6ccccc6)C(=O)C(C)(C)[C@@H]5CC[C@]43C)[C@@H]2C1
TGI [µM]: 6.92
--
smiles: C/C=C(/C)C(=O)O[C@@H]1CC(C)(C)C[C@H]2C3=CC[C@@H]4[C@@]5(C)CCC(=O)C(C)(C)[C@@H]5CC[C@@]4(C)[C@]3(C)CC[C@@]12C(=O)O
TGI [µM]: 43.7
--
smiles: C/C=C(/C)C(=O)O[C@@H]1CC(C)(C)C[C@H]2C3=CC[C@@H]4[C@@]5(C)CC[C@H](O)C(C)(C)[C@@H]5CC[C@@]4(C)[C@]3(C)CC[C@@]12C(=O)O
TGI [µM]: 5.37

For "CC(C)=CC(=O)O[C@@H]1CC(C)(C)C[C@H]2C3=CC[C@@H]4[C@@]5(C)CCC(=O)C(C)(C)[C@@H]5CC[C@@]4(C)[C@]3(C)CC[C@@]12C(=O)O" the compound record lists TGI as 29.5
